B1: HDV Ribozyme (parent)
chain: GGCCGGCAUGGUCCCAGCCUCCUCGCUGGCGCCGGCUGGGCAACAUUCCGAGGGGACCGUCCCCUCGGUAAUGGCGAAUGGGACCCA

Variants of: B1
Test: self-cleavage, relative activity (ratio to wild type); higher = more cleavage; co-transcriptional
For each record, write down the corresponding self-cleavage.
Field format: numeric only.

What self-cleavage value was documented for this variant, `GGCCGGCAUGGUCCCAGCCUCCUCGCUGGCGCCGGCUGGGCAACAACCCGAGGGGACCGUCCCCUCGGUAAUGGCGAAUGGGACCCA` ?
0.532

Similarly, `GGGCGGCAUGGUCCCAGCCUCCUCGCUGGCGCCGGCUGGGCAACAUUCCGAGGGGACCGUCCCCUCGGUAAGGGCGAAUGGGACCCA` ?
0.345

Similarly, `GGCCGGCAUGGUCCCAGCCUCCUCUCUGGCGCCGGCUGGGCAACAUGCCGAGGGGACCGUCCCCUCGGUAAUGGCGAAUGGGACCCA` ?
0.0692

Similarly, `GGCCGGCAUGGUCCCAGCCUCCUCGCUGGCGCCCGCUGGGCAACAUUCCGAGGGGACCGUCCCCUCGGUACUGGCGAAUGGGACCCA` ?
0.201

Similarly, `GGCCGGCAUGGUCCCAGCCUCCUCGCUGGCGCCGGCUGGGCAACAUUCCGAGGGGAUCGUCCCCUCUGUAAUGGCGAAUGGGACCCA` ?
0.974

Similarly, `UGCCGGCAUGGUCCCAGCCUCUUCGCUGGCGCCGGCUGGGCAACAUUCCGAGGGGACCGUCCCCUCGGUAAUGGCGAAUGGGACCCA` ?
0.356

Similarly, `GGCCGGCAUGGUCCCAGCCUCCUAGCUGGCGCCAGCUGGGCAACAUUCCGAGGGGACCGUCCCCUCGGUAAUGGCGAAUGGGACCCA` ?
0.166

Similarly, `GGCCGGCAAGGUCCCAGCCUCCUCGCUGGCGCCGGCUGGGCAACAUUCCGAGGGGACCGUCCCCUGGGUAAUGGCGAAUGGGACCCA` ?
1.1

Similarly, `GGCCGGCAUGGACCCAGCCUCCUCGCUGGCGCCGGCUGGGCAACAUUCCGAGGGGACCCUCCCCUCGGUAAUGGCGAAUGGGACCCA` ?
0.573

Similarly, `GGCCGGCAUGGUCCCAGCCUCCUCGCUGGCGCCGCCUGGGCAUCAUUCCGAGGGGACCGUCCCCUCGGUAAUGGCGAAUGGGACCCA` ?
0.0386

Similarly, `GGCCGGCAUGGUCCCAGCCCCCUCGCUGGCGCCGGCUGGGCAACAUUCCGAUGGGACCGUCCCCUCGGUAAUGGCGAAUGGGACCCA` ?
0.145

Similarly, `GCCCGGCAUGGUCCCAGACUCCUCGCUGGCGCCGGCUGGGCAACAUUCCGAGGGGACCGUCCCCUCGGUAAUGGCGAAUGGGACCCA` ?
0.0346

Similarly, `GGCCGGCAUGGUCCCAGCCUCCUCGCUGGCGCCGGCUGGGCAACAUUCCGACGUGACCGUCCCCUCGGUAAUGGCGAAUGGGACCCA` ?
0.513

Similarly, `GGCCGGCAUGCUCCCAGCCUCCUCGCUGGCGCCGGCUGGGCAACAUUCCGAGGGGGCCGUCCCCUCGGUAAUGGCGAAUGGGACCCA` ?
0.172

Similarly, `GGCCGGCAUGGUCCCAGCCUCCUCGCUGGCGCCGGCUGGGCAACAGUCCGAGGGGACCGUCCCCUCGGUAAUCGCGAAUGGGACCCA` ?
0.499
